Source listed as PubChem BioAssay.

- method: Plasmodium falciparum growth inhibition, primary screen, strain 3D7, DAPI fluorescence, 100 nL (AID 1184);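 note: parasites grown inside human red blood cells in medium with human serum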
- study-conditions: P. falciparum 3D7 growth, 3 d, higher = more signal
Overview of recorded z-score for various compounds
quantity-name: z-score

# chemical-structure, quantity-name, reported-value
measured = [
    ("COCCOC(=O)N1C(=O)[C@@]2(c3cc(C#CCNC(N)=O)ccc31)[C@H](c1ccc(O)cc1)N1[C@H](c3ccccc3)[C@H](c3ccccc3)OC(=O)[C@H]1[C@@H]2C(N)=O", "z-score", 0.228),
    ("O=C1O[C@H](c2ccccc2)[C@H](c2ccccc2)N2[C@H]1[C@@H](C(=O)N1CCCCCCC1)[C@]1(C(=O)Nc3ccc(C#CC4(O)CCCCCC4)cc31)[C@H]2c1ccc(O)cc1", "z-score", -0.372),
    ("COC(=O)[C@@]1(Cc2ccc(OC)cc2)[C@H]2c3cc(C(=O)N4CCCC4)n(Cc4ccc(OC(F)(F)F)cc4)c3C[C@H]2CN1C(=O)c1ccccc1", "z-score", -1.29),
]

----------
- method: small-molecule microarray binders of probe aXIP, primary screen, biochemical, NeuroSMM set, 635/667 nm fluorescence (AID 1119);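 note: probe is the protein aXip251-270 applied at 1 µg/mL to compound-printed slides; binding of probe to printed compounds measured as 667 nm fluorescence plus signal to noise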
- study-conditions: higher = more signal, called active from +8 up or from −8 down

# chemical-structure, composite Z-score
rows = [
    ("C=C(CCCC)/C(=C/C[C@H](OC(C)=O)c1ccc(OCCO)cc1)c1cc(C(=O)OC)ccc1OC", 0.414),
    ("CC(=O)NCCCC[C@@H]1NC(=O)[C@H]2C[C@@H](C(=O)NCCCCCNC(=O)CS)[C@@H](c3cccc(OCCO)c3)N2C1=O", 1.98),
    ("COC(=O)[C@@]1(Cc2ccc(F)cc2)[C@H]2c3cc(C(=O)N(C)C)n(Cc4c(CO)[nH]cc(C)c4=O)c3C[C@H]2CN1C(=O)c1ccccc1", 0.266),
    ("C=CCNC(=O)[C@H]1[C@@H]2C(=O)O[C@@H](c3ccccc3)[C@@H](c3ccccc3)N2[C@@H](c2ccc(OCCO)cc2)[C@]12C(=O)Nc1ccc(C#CCNC(N)=O)cc12", -0.262),
]

----------
Measured composite z-score values are reported for all entries that follow.
- method: binders from COS7 lysate, DM2A8 probe, primary screen, torsin A project, cell lysate, small-molecule microarray, fluorescence 635/667 (AID 1065)
- study-conditions: higher = more signal, COS7 lysate expressing mutant human TOR1A

# compound, composite z-score
records = [
    ("COCCCNC(=O)[C@@H]1c2ccccc2C(=O)N(C2Cc3ccccc3C2)[C@H]1c1ccc(CO)cc1", 0.703),
    ("COc1cc(NN2C(C(O)C3CCCCC3)C=CC3C(=O)N(C)C(=O)C32)cc(OC)c1OC (stereo unspecified)", 0.054),
    ("C=CCOC(=O)[C@H]1[C@@H]2C(=O)O[C@@H](c3ccccc3)[C@@H](c3ccccc3)N2[C@@H](c2ccc(OCCOC(=O)[C@H]3C[C@H]4C(=O)N[C@@H](CCCCNC(C)=O)C(=O)N4[C@H]3c3cccc(OCCO)c3)cc2)[C@]12C(=O)Nc1ccc(I)cc12", 1.01),
    ("COc1ccc(C#Cc2ccc3c(c2)[C@]2(C(=O)N3)[C@H](C(=O)Nc3nc4ccccc4s3)[C@H]3C(=O)O[C@H](c4ccccc4)[C@H](c4ccccc4)N3[C@@H]2c2ccccc2OCCO)cc1", 0.125),
    ("CC(C)CNC(=O)[C@@H]1c2ccccc2C(=O)N(C2CCCCC2)[C@H]1c1ccc(CO)cc1", -0.754),
    ("COC(=O)[C@@]1(Cc2ccc(F)cc2)[C@H]2c3cc(C(=O)N4CCCC4)n(C)c3C[C@H]2CN1C(=O)c1ccccc1", 0.155),
]

----------
Reported composite z-score values for the following compounds.
- method: small-molecule binders of probe aNOTCH3, primary screen, biochemical, small-molecule microarray, 635/667 nm fluorescence (AID 1120);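 note: probe is a biotin-tagged antibody raised against NOTCH3 rather than NOTCH3 protein; score merges spot fluorescence near 667 nm with spot signal to noise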
- study-conditions: higher = more signal

# compound, composite z-score
rows = [
    ("COCCCNC(=O)[C@@]1(Sc2ccc(C)cc2)CC(=O)N(C(C)C)[C@@H]1c1ccc(CO)cc1I", 0.0062),
    ("C=C(COC)C(=O)CC[C@H](OC(=O)c1cccnc1)c1ccc(CO)o1", 0.0225),
    ("COCCOC(=O)N1C(=O)[C@@]2(c3cc(C#CC4(O)CCCCCC4)ccc31)[C@H](c1ccc(OCCO)cc1)N1[C@H](c3ccccc3)[C@H](c3ccccc3)OC(=O)[C@H]1[C@@H]2C(=O)Nc1nc2ccccc2s1", 0.5),
    ("C=CCNC(=O)[C@H]1[C@@H]2C(=O)O[C@@H](c3ccccc3)[C@@H](c3ccccc3)N2[C@@H](c2ccc(O)cc2)[C@]12C(=O)N(C(=O)OCCOC)c1ccc(C#CCC(C(=O)OC)C(=O)OC)cc12", 0.0904),
    ("[N-]=[N+]=NCc1ccccc1[C@H]1OC(c2ccc(OCCCO)cc2)=N[C@@]1(Cc1ccccc1)C(=O)NCCN1CCOCC1", 0.576),
    ("C=CCC(OC(C)=O)[C@@H]1[C@@H](N(Cc2ccc(-c3cccc(C(F)(F)F)c3)o2)C(=O)c2cccc3ccccc23)c2cc(OCCCO)ccc2N1C(=O)Cc1ccc(OC)cc1 (stereo partly drawn)", -0.027),
    ("O=C1OCCC=C[C@H]2OC34C=CCN(c5ccc(Cl)cc5)C(=O)[C@H]3N(CCCCCCO)C(=O)[C@@H]4C12 (stereo partly drawn)", -0.122),
    ("C=C(C(=O)CC[C@@H](OC(=O)c1ccccc1-c1ccccc1C(=O)O)c1ccccc1OCCO)C(C)C", -0.0111),
]

----------
- method: binders of probe aFSTL3 on microarray, primary screen, stem cell growth factor project, biochemical, small-molecule microarray, fluorescence 635/667 (AID 1064);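 note: measures binding of the biotinylated anti-FSTL3 antibody to printed compounds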
- study-conditions: higher = more signal

# compound, composite z-score
data = [
    ("[N-]=[N+]=NCc1ccccc1[C@H]1OC(c2ccc(OCCCO)cc2)=N[C@@]1(Cc1ccccc1)C(=O)NCCN1CCOCC1", -0.714),
    ("Cc1ccc(N2C(=O)c3ccccc3[C@](C)(C(=O)NCc3ccccc3)[C@@H]2c2ccc(CO)cc2)nc1", 0.625),
    ("Cc1nc2cc(Br)ccc2c(=O)n1Cc1cccc(O)c1", -0.473),
    ("O=C1NC(=O)C2C1C=CC(C(O)c1ccccn1)N2Nc1ccc(Cl)cc1Cl (centres undefined)", -0.0358),
    ("C=CCC(OC(C)=O)[C@@H]1[C@@H](N(Cc2cccc3ccccc23)C(=O)c2ccc(-c3ccccc3)cc2)c2cc(OCCCO)ccc2N1C(=O)c1ccc(-c2ccccc2)cc1 (some centres undefined)", -0.0061),
    ("O=C1OCCC/C=C\\[C@H]2OC34C=CCN(c5ccc6ccccc6c5)C(=O)[C@H]3N(CCCO)C(=O)[C@@H]4C12 (some centres undefined)", -0.0204),
    ("NCCCCCNC(=O)[C@@H]1C[C@@H]2C(=O)N3CCC[C@H]3C(=O)N2[C@@H]1c1ccc(O)cc1", 1.19),
    ("C#C[C@@H](CC)O[Si](C#CCCCC#N)(C(C)C)C(C)C", 0.0465),
    ("COC(=O)C1=CC(CCCO)=CC(C)N(Cc2cccc(OC(F)(F)F)c2)C=C1C(=O)OC (centres undefined)", -0.385),
]

----------
- method: modulators of HCV replicon luciferase signal, primary screen, HCV replication inhibitor project, Huh7 cells, luciferase reporter (AID 1109);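 note: huh7 hepatoma cells harbouring a luciferase neomycin HCV replicon reporter; luciferase luminescence as measure of HCV replicon replication; test concentration not given here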
- study-conditions: 48 h, higher = more signal
quantity-name: z-score

# chemical-structure, quantity-name, reported-value
records = [
    ("COCCOC(=O)N1C(=O)[C@@]2(c3cc(C#CCC(C(=O)OC)C(=O)OC)ccc31)[C@H](c1ccc(OCCO)cc1)N1[C@H](c3ccccc3)[C@H](c3ccccc3)OC(=O)[C@H]1[C@@H]2C(=O)Nc1nc2ccccc2s1", "z-score", -2.06),
    ("O=C1C[C@@](C(=O)NCC(F)(F)F)(c2ccc([N+](=O)[O-])cc2)[C@@H](c2ccc(CO)cc2)N1CC12CC3CC(CC(C3)C1)C2", "z-score", -3.33),
    ("COc1cc2c(cc1OC)CN(C(=O)[C@@H]1[C@H]3C(=O)O[C@H](c4ccccc4)[C@H](c4ccccc4)N3[C@H](c3ccc(O)cc3)[C@@]13C(=O)Nc1ccc(C#CCCO)cc13)CC2", "z-score", -1.09),
]
